# conditionSummary: pH 2.7
Marks after values point to notes of the source that are not given here.
endpoint: Log P

* CCOC(=O)C(C#N)=C(Nc1cccc(SC)c1)c1sc(C)nc1C(F)(F)F [Compound 505] | 3.89^[a]
* COC(=O)C(C#N)=C(NC(C)(C)C(C)(C)C)c1sc(C)nc1C(F)(F)F [Compound 754] | 4.02^[a]
* CC(C)C(C)NC(=C(C#N)C(=O)N1CCCC1)c1cccnc1Cl (stereo not shown) [Compound 1491] | 3.02^[a]
* CCOC(=O)C(C#N)=C(NC(C)Cc1c[nH]c2ccccc12)c1ccsc1I (racemic) [Compound 164] | 3.8^[a]
